Target: PI3Kβ (Homo sapiens, UniProt P42338)
Sequence (P42338 whole entry): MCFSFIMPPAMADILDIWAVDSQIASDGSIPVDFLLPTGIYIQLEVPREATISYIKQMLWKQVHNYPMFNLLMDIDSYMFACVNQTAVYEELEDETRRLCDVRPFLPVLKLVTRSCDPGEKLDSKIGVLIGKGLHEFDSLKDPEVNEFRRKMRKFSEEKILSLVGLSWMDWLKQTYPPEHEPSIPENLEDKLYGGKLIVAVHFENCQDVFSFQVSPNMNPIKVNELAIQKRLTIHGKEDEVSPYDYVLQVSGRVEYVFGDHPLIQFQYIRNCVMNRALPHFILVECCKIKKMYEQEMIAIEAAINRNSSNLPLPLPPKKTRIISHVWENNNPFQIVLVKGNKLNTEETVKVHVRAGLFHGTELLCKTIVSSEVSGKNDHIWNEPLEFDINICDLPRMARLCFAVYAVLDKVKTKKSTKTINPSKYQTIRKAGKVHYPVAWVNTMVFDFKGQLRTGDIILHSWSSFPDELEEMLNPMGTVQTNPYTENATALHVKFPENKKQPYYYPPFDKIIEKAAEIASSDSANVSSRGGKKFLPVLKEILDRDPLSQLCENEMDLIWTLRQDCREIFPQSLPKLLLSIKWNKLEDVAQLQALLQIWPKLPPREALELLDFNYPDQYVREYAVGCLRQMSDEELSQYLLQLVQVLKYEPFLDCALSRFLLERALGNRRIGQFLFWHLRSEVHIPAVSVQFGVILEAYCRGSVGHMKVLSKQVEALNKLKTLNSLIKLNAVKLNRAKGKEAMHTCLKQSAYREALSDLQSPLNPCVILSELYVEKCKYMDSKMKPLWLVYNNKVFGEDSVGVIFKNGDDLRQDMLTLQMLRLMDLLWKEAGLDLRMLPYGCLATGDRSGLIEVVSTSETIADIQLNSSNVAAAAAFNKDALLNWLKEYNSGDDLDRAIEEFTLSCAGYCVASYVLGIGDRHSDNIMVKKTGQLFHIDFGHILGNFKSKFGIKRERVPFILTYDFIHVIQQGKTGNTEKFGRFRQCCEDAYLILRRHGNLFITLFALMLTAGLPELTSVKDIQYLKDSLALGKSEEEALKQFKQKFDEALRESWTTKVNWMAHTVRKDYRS
Assay: PI3K enzyme inhibitory activity in the cell free assay (ADP-Glo Kinase Assay)
Details: human recombinant PI3Kβ, ATP 100 μM; read-out: PI3K beta inhibition
Counter-ions that a name gives are not always drawn.
Assay Metric: IC50

Examples with answers:
>>> obs_value("CC(Nc1ncnc2[nH]cnc12)c1oc(=O)c2ccccc2c1-c1ccc(CN2CCOCC2)s1 (stereo not shown)")
"> 1000 nM"
>>> obs_value("CC(c1oc(=O)c2ccccc2c1-c1ccc(CN2CCCCC2)cc1)n1nc(-c2cc(O)cc(F)c2)c2c(N)ncnc21 (stereo not shown) [Example 141, hydrochloride]")
"10 to 1000 nM"
>>> obs_value("CC(c1oc(=O)c2ccccc2c1-c1cncs1)n1ncc2c(N)ncnc21 (stereo not shown)")
"10 to 1000 nM"

Consider the molecule `Nc1ncnc2c1c(-c1ccc(O)c(F)c1)nn2Cc1oc(=O)c2ccccc2c1-c1ccccc1` and give its measured IC50.
> 1000 nM

And what about the molecule `Nc1ncnc2c1c(-c1ccc3[nH]ncc3c1)nn2Cc1oc(=O)c2ccccc2c1-c1ccccc1` ?
> 1000 nM

Next: Cc1nn(C(C)c2oc(=O)c3ccccc3c2-c2ccccc2)c2ncnc(N)c12 (stereo not shown)
10 to 1000 nM

Try this molecule next: CC(c1oc(=O)c2ccccc2c1-c1ccccc1)n1nc(-c2cnc(C(F)(F)F)c(O)c2)c2c(N)ncnc21 (stereo not shown)
> 1000 nM

* * *

Target: PI3Kα (Homo sapiens, UniProt P42336)
Sequence (P42336 whole entry): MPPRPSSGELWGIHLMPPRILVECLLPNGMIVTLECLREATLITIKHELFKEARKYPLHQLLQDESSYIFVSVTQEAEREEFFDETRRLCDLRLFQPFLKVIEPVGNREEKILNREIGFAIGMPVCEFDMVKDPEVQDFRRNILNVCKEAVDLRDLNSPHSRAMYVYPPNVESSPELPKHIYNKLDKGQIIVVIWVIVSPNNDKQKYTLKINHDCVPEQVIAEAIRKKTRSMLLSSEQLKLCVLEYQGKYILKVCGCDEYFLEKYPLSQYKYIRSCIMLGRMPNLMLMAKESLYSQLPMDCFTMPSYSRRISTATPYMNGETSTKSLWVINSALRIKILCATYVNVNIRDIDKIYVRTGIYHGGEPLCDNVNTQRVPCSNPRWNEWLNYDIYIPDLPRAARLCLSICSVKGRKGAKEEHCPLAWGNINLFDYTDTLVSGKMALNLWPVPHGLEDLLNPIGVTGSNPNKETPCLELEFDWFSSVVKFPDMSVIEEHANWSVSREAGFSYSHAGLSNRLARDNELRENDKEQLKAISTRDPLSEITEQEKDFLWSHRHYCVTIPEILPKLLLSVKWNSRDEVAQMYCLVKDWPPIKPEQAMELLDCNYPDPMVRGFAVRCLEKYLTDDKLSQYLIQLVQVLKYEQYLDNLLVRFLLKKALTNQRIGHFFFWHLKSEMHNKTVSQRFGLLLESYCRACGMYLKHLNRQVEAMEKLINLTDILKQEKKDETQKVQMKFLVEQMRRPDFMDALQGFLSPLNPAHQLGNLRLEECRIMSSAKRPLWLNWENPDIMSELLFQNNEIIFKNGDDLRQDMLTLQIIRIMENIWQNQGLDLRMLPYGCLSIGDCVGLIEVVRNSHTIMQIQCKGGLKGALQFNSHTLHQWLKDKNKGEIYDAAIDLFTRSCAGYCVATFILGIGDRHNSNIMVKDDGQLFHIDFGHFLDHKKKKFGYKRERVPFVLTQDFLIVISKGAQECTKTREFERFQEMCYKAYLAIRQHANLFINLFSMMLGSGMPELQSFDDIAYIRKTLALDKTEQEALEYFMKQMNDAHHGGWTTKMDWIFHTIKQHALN
Assay: PI3K enzyme inhibitory activity in the cell free assay (ADP-Glo Kinase Assay)
Conditions: human recombinant PI3Kα, ATP 50 μM; read-out: PI3K alpha inhibition
pIC50: −log10 of the molar value. Counter-ions that a name gives are not always drawn.
Recorded measurements of pIC50, one per entry

>>> obs_value("CC(c1oc(=O)c2ccccc2c1C1=CCN(C(=O)CCCN(C)C)CC1)n1nc(-c2cc(O)cc(F)c2)c2c(N)ncnc21 (stereo not drawn) [Example 146, formate]")
"< 6.00"
>>> obs_value("CC(c1oc(=O)c2ccc(Cl)cc2c1-c1ccccc1)n1nc(-c2cc(O)cc(F)c2)c2c(N)ncnc21 (stereo not drawn)")
"< 6.00"
>>> obs_value("CC(c1oc(=O)c2ccccc2c1CN1CCOCC1)n1nc(-c2cc(O)cc(F)c2)c2c(N)ncnc21 (stereo not drawn)")
"6.00 to 8.00"

Name the recorded pIC50 for CC(Nc1ncnc2[nH]cnc12)c1oc(=O)c2ccccc2c1-c1cncs1 (stereo not drawn) .
6.00 to 8.00

Proceed to CC(c1oc(=O)c2ccccc2c1C1=CCC(N)CC1)n1nc(-c2cc(O)cc(F)c2)c2c(N)ncnc21 (stereo not drawn) [Example 103, hydrochloride]
6.00 to 8.00

Record: CC(c1oc(=O)c2ccccc2c1C1=CCCN(C2CCN(C)CC2)C1)n1nc(-c2cc(O)cc(F)c2)c2c(N)ncnc21 (stereo not drawn) [Example 172, dihydrochloride]
6.00 to 8.00

Also need CC(c1oc(=O)c2ccccc2c1-c1ccccc1)n1nc2ncnc(N)c2c1-c1cc(O)cc(F)c1 (stereo not drawn) , thanks.
6.00 to 8.00

Similarly, CC(c1oc(=O)c2ccccc2c1-c1ccc(CCCN(C)C)s1)n1nc(-c2cc(O)cc(F)c2)c2c(N)ncnc21 (stereo not drawn) [Example 136, Formate] ?
< 6.00

Would you mind doing CC(c1oc(=O)c2ccccc2c1C1=CCNCC1)n1nc(-c2cc(O)cc(C(F)(F)F)c2)c2c(N)ncnc21 (stereo not drawn) [Example 153, formate] as well?
< 6.00

What do you get for CC(c1oc(=O)c2ccccc2c1C1=CCN(C(=O)CN(C)C)CC1)n1nc(-c2cc(O)cc(F)c2)c2c(N)ncnc21 (stereo not drawn) [Example 147, formate] ?
6.00 to 8.00

Moving on to the next molecule: CC(c1oc(=O)c2ccccc2c1-c1ccc(CN2CCCCC2)cc1)n1nc(-c2cc(O)cc(F)c2)c2c(N)ncnc21 (stereo not drawn) [Example 141, hydrochloride]
< 6.00

Let us now turn to CC(c1oc(=O)c2ccccc2c1-c1ccc(CN2CCN(C)CC2)cc1)n1nc(-c2cc(O)cc(F)c2)c2c(N)ncnc21 (stereo not drawn) [Example 139, dihydrochloride]
< 6.00

What do you have for CC(Nc1ncnc2[nH]cnc12)c1oc(=O)c2ccccc2c1-c1cn[nH]c1 (stereo not drawn) ?
6.00 to 8.00

Repeat with CC(c1oc(=O)c2ccccc2c1C1=CCCN(Cc2ccccc2)C1)n1nc(-c2cc(O)cc(F)c2)c2c(N)ncnc21 (stereo not drawn) [Example 169, hydrochloride]
< 6.00

Please answer likewise for CC(c1oc(=O)c2ccccc2c1-c1cccc(CCCN(C)C)c1)n1nc(-c2cc(O)cc(F)c2)c2c(N)ncnc21 (stereo not drawn)
< 6.00

Record: CC(Nc1ncnc(N)c1C#N)c1oc(=O)c2ccccc2c1-c1cn[nH]c1 (stereo not drawn) [Example 123, hydrochloride]
6.00 to 8.00

Same thing, different molecule: CC(c1oc(=O)c2ccccc2c1-c1ccc(CN2CCCC2)cc1)n1nc(-c2cc(O)cc(F)c2)c2c(N)ncnc21 (stereo not drawn) [Example 140, hydrochloride]
< 6.00

Record: CC(c1oc(=O)c2ccccc2c1C1=CC(C)(C)NC(C)(C)C1)n1nc(-c2cc(O)cc(F)c2)c2c(N)ncnc21 (stereo not drawn) [Example 144, hydrochloride]
< 6.00

* * *

Target: PI3Kβ (Homo sapiens, UniProt P42338)
Assay: PI3K enzyme inhibitory activity in the cell free assay (ADP-Glo Kinase Assay)
Conditions: human recombinant PI3Kβ, ATP 100 μM; read-out: PI3K beta inhibition
Counter-ions that a name gives are not always drawn.
Assay Metric: IC50

I'd like to know its IC50. The compound in question is CC(c1oc(=O)c2ccccc2c1C1=CC(C)(C)NC(C)(C)C1)n1nc(-c2cc(O)cc(F)c2)c2c(N)ncnc21 (stereo not drawn) [Example 144, hydrochloride]
10 to 1000 nM

For CC(c1oc(=O)c2ccccc2c1C1=CCCN(C2CCN(C)CC2)C1)n1nc(-c2cc(O)cc(F)c2)c2c(N)ncnc21 (stereo not drawn) [Example 172, dihydrochloride] then?
10 to 1000 nM

Next entry: CC(c1oc(=O)c2ccccc2c1-c1ccc(C(=O)O)s1)n1nc(-c2cc(O)cc(F)c2)c2c(N)ncnc21 (stereo not drawn) [Example 78]
> 1000 nM

Also need CC(c1oc(=O)c2ccccc2c1-c1ccccc1)n1nc(-c2cncc(N)c2)c2c(N)ncnc21 (stereo not drawn) [Example 88, hydrochloride] , thanks.
10 to 1000 nM

Then this compound: Nc1ncnc2c1c(-c1cc(O)cc(F)c1)nn2CC1=C(c2ccccc2)c2ccccc2CO1 [Example 128]
10 to 1000 nM

For CC(Nc1ncnc2[nH]cnc12)c1oc(=O)c2ccccc2c1-c1cccc(N(C)C)c1 (stereo not drawn) [Example 34] then?
> 1000 nM

* * *

Biological target: PI3Kβ (Homo sapiens, UniProt P42338)
Experiment: PI3K enzyme inhibitory activity in the cell free assay (ADP-Glo Kinase Assay)
Settings: human recombinant PI3Kβ, ATP 100 μM; read-out: PI3K beta inhibition
pIC50: −log10 of the molar value. Structures can show the parent of a compound that is named as a salt.
Assay Metric: pIC50

Solved entries:
>>> obs_value("CCC(Nc1ncnc2[nH]cnc12)c1oc(=O)c2ccccc2c1-c1ccccc1 (stereo not shown)")
"< 6.00"
>>> obs_value("CC(c1oc(=O)c2ccc(Cl)cc2c1-c1ccccc1)n1nc(-c2cc(O)cc(F)c2)c2c(N)ncnc21 (stereo not shown)")
"6.00 to 8.00"
>>> obs_value("CC(c1oc(=O)c2ccccc2c1-c1cccc(N(C)C)c1)n1nc(-c2cc(O)cc(F)c2)c2c(N)ncnc21 (stereo not shown)")
"< 6.00"
>>> obs_value("O=c1oc(CNc2ncnc3[nH]cnc23)c(-c2ccccc2F)c2ccccc12")
"< 6.00"
>>> obs_value("CC(Nc1ncnc(N)c1C#N)c1oc(=O)c2ccccc2c1-c1ccc(CN2CCOCC2)s1 (stereo not shown) [Example 82, hydrochloride]")
"< 6.00"

Requested read-out: pIC50. Entry: `Nc1ncnc2c1c(-c1cncc(O)c1)nn2CC1=C(c2ccccc2)c2ccccc2CO1`
6.00 to 8.00

// query: CC(c1oc(=O)c2ccccc2c1-c1cccc(CN2CCN(C)CC2)c1)n1nc(-c2cc(O)cc(F)c2)c2c(N)ncnc21 (stereo not shown)
< 6.00

Same question, CC(c1oc(=O)c2ccccc2c1C1=CCN(CC2CC2)CC1)n1nc(-c2cc(O)cc(F)c2)c2c(N)ncnc21 (stereo not shown) [Example 66, hydrochloride] this time
6.00 to 8.00

Another molecule to check: CC(c1oc(=O)c2ccccc2c1-c1ccc(CN2CCCC2)s1)n1nc(-c2cc(O)cc(F)c2)c2c(N)ncnc21 (stereo not shown) [Example 73, hydrochloride]
6.00 to 8.00

Likewise for CC(=O)N1CC=C(c2c(C(C)n3nc(-c4cc(O)cc(F)c4)c4c(N)ncnc43)oc(=O)c3ccccc23)CC1 (stereo not shown) ?
6.00 to 8.00

Likewise for CC(c1oc(=O)c2ccc(F)cc2c1-c1ccccc1)n1nc(-c2cc(O)cc(F)c2)c2c(N)ncnc21 (stereo not shown) ?
6.00 to 8.00

Note, next up: CC(c1oc(=O)c2ccccc2c1C1=CCCN(Cc2ccccc2)C1)n1nc(-c2cc(O)cc(F)c2)c2c(N)ncnc21 (stereo not shown) [Example 169, hydrochloride]
6.00 to 8.00

Now give it for CC(c1oc(=O)c2ccccc2c1C1=CCN(C(=O)CN(C)C)CC1)n1nc(-c2cc(O)cc(F)c2)c2c(N)ncnc21 (stereo not shown) [Example 147, formate] too.
6.00 to 8.00

Now the molecule `Nc1ncnc2c1ncn2Cc1oc(=O)c2ccccc2c1-c1ccccc1F`
< 6.00
